System: KM-20L2
Assay: NCI tumour cell line growth inhibition, 48 h
Calls of active or inactive are those of the source. Rule as the data show it: active = GI50 up to about 1.1 µM and inactive = higher.

compound: O=C(O)NC(c1ccccc1)C(NC(=O)c1ccccc1)c1ccccc1 (centres undefined)
GI50: > 100 µM (inactive)
//
compound: COC(=O)[C@@]12OC[C@]34C([C@@H](O)C1O)[C@@]1(C)CC(=O)C(O)=C(C)C1C[C@H]3OC(=O)[C@H](OC(=O)/C=C(/c1ccccc1)C(F)(F)F)[C@H]42 (some centres undefined)
GI50: 3.92 µM (inactive)
//
compound: CN(C)CCNC(=O)c1cccc2ccc(-c3ccc(Br)cc3)nc12
GI50: 1.78 µM (inactive)
//
compound: COC(=O)NC12CC3CC(CC(F)(C3)C1)C2
GI50: > 100 µM (inactive)
//
compound: COc1cc([C@@H]2c3cc4c(cc3[C@@H](NCc3cccc(C#N)c3)C3COC(=O)[C@@H]32)OCO4)cc(OC)c1O (some centres undefined)
GI50: 1.58 µM (inactive)
//
compound: C=C[C@]1(C)CC(O)C2C(=C)C(=O)OC2[C@H]1C(=C)C=O (some centres undefined)
GI50: 5.47 µM (inactive)
//
compound: O=C(O)c1ccc(Nc2nc3nn(Cc4ccccc4)cc3c(=O)s2)cc1
GI50: > 100 µM (inactive)
//
compound: COc1cc(/C=C2/C(=O)N(C(=O)c3ccc(Cl)cc3)N=C2C)cc(OC)c1OC
GI50: > 100 µM (inactive)
//
compound: CN(C)CCCCN1CCc2c(n(C)c3ccccc23)C1=O
GI50: 33 µM (inactive)
